The reported numbers originate from patent US20220119522A1.

# tested.on: mouse TREM2 truncated stalk peptide (aa 149-163) (mouse) (UniProt Q99NH8)
# procedure.text: ELISA on biotinylated peptide captured by streptavidin; A450 normalised to isotype control
readout.type: fold over background (A450) (fold)
Please reply with the bare figure in fold and do not write the unit itself.

For orientation, consider the following solved cases.
binder	reported.result
CL0020164 (antibody, V domains shown) VH: EVKLLESGGGLVQPGGSLRLSCAASGFTFTDFYMSWIRQPPGKAPEWLGVIRNKANGFTTEYNTSVKGRFTISRDYTQNILHLQTNTLRAEDTAIYYCARLTYGFDYWGQGVMVTVSS VL: DIVMTQGALPNPVPSGESASITCQSSKSLLHSNGKTYLNWYLQRPGQSPQFLIYWMSTRASGVSDRFSGSGSGTDFTLKISSVEAEDVGVYYCQQFLELPFTFGSGTKLEIK	1.5
CL0020096 (antibody, V domains shown) VH: QIQLVQSGPELRKPGETVKISCKASGYTFTTYGMSWVKQAPGKGLKWMGWINTYSGLPRHSDDFKGRFAFSLETSASTAYLQINNLKNEDTATYFCAREVYYGSRKTAWFAYWGQGTLVTVSA VL: DLVMSQSPSSLAVSVGERVTMSCKSSQSLLYSNDQKNYLAWYQQIPGQSPKLLIYWASTRESGVPDRFTGSGSGTDFTLTISSVKAEDLAVYFCQQYYSYPPTFGAGTKLELK	1.3
CL0020186 (antibody, V domains shown) VH: EVQLVESGGGLVQPGRSLKLSCPASGFTFSYYGMAWVRQAPTKGLEWVASISTGGGNTYYRDSVKGRFTISRDNAKNTLYLQMDSLRSEDTATYYCARGDIGTAYWFTYWGQGTLVTVSS VL: NIQLTQSPSLLSASVGDRVTLSCKGSQNINNYLAWYQQKLGEAPKLLIYKTNSLLTGIPSRFSGSGSGTDYTLTISSLHSEDLATYYCYQYNNGWTFGGGTKLELK	1.3

Give recorded fold over background (A450). CL0020210 (antibody, V domains shown) VH: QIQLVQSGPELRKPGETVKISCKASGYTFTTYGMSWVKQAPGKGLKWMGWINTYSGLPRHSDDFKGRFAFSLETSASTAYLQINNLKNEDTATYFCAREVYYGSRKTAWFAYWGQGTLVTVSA VL: DLVMSQSPSSLAVSVGERITMTCKSSQSLLYSNDQKNYLAWYQQIPGQSPKLLLYWASTRESGVPDRFTGSGSGTDFTLTISSVKAEDLAVYFCQQYYNYPPTFGAGTKLELK
1.6
